target: T1, Human CTGF with a human IgG1 Fc Tag (Homo sapiens, UniProt P29279, H83D); experiment: SPR epitope analysis (simultaneous binding); settings: SPR, mixed and injected simultaneously at 750 nM or 1000 nM
T1 construct: purchased Creative Biomart
T1 sequence (P29279 with tags, fused parts or gaps H83D): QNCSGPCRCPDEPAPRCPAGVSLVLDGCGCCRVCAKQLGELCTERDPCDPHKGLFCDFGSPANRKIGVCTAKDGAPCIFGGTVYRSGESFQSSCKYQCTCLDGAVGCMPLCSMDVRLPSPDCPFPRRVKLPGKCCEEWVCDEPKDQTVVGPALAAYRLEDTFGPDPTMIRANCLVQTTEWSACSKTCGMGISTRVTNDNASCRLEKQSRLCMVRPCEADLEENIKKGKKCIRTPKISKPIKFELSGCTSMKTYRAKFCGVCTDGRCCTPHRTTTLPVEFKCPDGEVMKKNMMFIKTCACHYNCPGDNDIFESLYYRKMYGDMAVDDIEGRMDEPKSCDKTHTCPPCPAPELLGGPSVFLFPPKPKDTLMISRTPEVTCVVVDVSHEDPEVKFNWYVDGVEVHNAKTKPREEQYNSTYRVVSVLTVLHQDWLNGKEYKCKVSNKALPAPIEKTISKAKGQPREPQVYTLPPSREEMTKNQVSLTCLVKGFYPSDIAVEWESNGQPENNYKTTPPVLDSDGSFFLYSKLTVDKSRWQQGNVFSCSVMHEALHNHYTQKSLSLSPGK
Result type: Simultaneous binding with SEQ ID NO: 9

Molecule	Result
SEQ ID NO: 7: parent CTGF-binding hNGAL lipocalin mutein (protein, lipocalin mutein) QDSTSDLIPAPPLSKVPLQQNFQDNQFHGKWYVVGLAGNYGLRTDKRPSKMFATIYELKEDKSYDVTSVRFEQERCHYTIRTFVPGSQPGEFTTGSIKSRPGQTSSLVRVVSTNYNQHAMVFFKSVIQNREYFAITLYGRTKELTSELKENFIRFSKSLGLPENHIVFPVPIDQCIDG	no
SEQ ID NO: 29: parent CTGF-binding hNGAL lipocalin mutein (protein, lipocalin mutein) QDSTSDLIPAPPLSKVPLQQNFQDNQFHGKWYVVGWAGNIKLREDKDPFKMSATIYELKEDKSYNVTEVVFEQKKCHYIIKTFVPGSQPGEFTLGDIKSPPGETSSLVRVVSTNYNQHAMVFFKKVFQNREFFWITLYGRTKELTSELKENFIRFSKSLGLPENHIVFPVPIDQCIDG	yes
SEQ ID NO: 9: parent CTGF-binding hNGAL lipocalin mutein (protein, lipocalin mutein) QDSTSDLIPAPPLSKVPLQQNFQDNQFHGKWYVVGLAGNKILRIDKQPAKMFATIYELKEDKSYDVTSVRFEARSCSYTIKTFVPGSQPGEFTAGNIKSAPGQTSTLVRVVSTNYNQHAMVFFKHVSQNRETFVITLYGRTKELTSELKENFIRFSKSLGLPENHIVFPVPIDQCIDG	no
SEQ ID NO: 25: parent CTGF-binding hNGAL lipocalin mutein (protein, lipocalin mutein) QDSTSDLIPAPPLSKVPLQQNFQDNQFHGKWYVVGMAGNFRLREDKDPSKMGATIYELKEDKSYNVTQVQFDDKKCLYVIETFVPGSQPGEFTLGAIKSFPGFTSQLVRVVSTNYNQHAMVFFKKVYQNREVFWITLYGRTKELTSELKENFIRFSKSLGLPENHIVFPVPIDQCIDG	yes
